All values here come from patent US10316028B2.

TESTED_SYSTEM: human Orexin-2 receptor (Homo sapiens, UniProt O43614)
Construct: expressed in transfected cells; host or cells: HEK293 cells (transient transfection, Genejuice); membranes
Sequence (O43614 1-444): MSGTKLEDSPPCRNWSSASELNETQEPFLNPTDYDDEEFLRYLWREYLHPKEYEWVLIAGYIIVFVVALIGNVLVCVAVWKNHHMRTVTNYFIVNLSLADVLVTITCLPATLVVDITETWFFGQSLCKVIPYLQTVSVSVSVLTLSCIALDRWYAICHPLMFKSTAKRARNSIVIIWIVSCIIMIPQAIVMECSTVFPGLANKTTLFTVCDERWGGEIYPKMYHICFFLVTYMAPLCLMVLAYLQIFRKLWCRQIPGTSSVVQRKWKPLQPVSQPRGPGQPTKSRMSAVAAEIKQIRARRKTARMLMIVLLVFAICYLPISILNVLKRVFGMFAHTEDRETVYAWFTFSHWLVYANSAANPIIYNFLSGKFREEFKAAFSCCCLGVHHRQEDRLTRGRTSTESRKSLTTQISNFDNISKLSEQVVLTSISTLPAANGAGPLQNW
TEST: 3H-EMPA radioligand binding assay
EXPERIMENTAL_CONDITIONS: 3H-EMPA displacement, membranes of HEK293 cells transfected with human Orexin-2 receptor; KI by Cheng-Prussoff; read-out: OX2 pKi ave (converted)
Assign Ki to each entry below.
Give bare numbers, in nM.

A selection of reference data follows.
Recorded Ki (molecule CSc1cccc(N2C(=O)N(Cc3ccc(F)cc3Cl)c3ccccc3S2(=O)=O)c1 [Example 50] ): 35.5

The recorded Ki for COc1ccc(N2C(=O)N(Cc3c(C)ccnc3C)c3ccccc3S2(=O)=O)cc1OC [Example 84] is 490

Reported Ki of Cc1ccc(N2C(=O)N(Cc3c(F)cccc3Cl)c3ccccc3S2(=O)=O)c(C)c1 [Example 45] : 16.6

For reference, reported Ki for COc1ncc(N2C(=O)N(Cc3c(F)cccc3Cl)c3ccccc3S2(=O)=O)cn1 [Example 137] stands at 38

What the record says about Cc1ccc(N2C(=O)N(Cc3c(F)cc(F)cc3F)c3ncccc3S2(=O)=O)cc1C [Example 101] : Ki is 3.47

Record Ki per entry; entries follow.
1. COc1cc(N2C(=O)N(Cc3c(F)cc(F)cc3F)c3ccccc3S2(=O)=O)cc(OC)n1 [Example 148]
2. O=C1N(Cc2c(F)cccc2Cl)c2ccccc2S(=O)(=O)N1c1cccc(SC(F)(F)F)c1 [Example 73]
3. O=C1N(Cc2c(F)cccc2Cl)c2ccccc2S(=O)(=O)N1Cc1ccc(F)cc1 [Example 39]

1.38
2.09
20

====

TESTED_SYSTEM: human Orexin-2 receptor (Homo sapiens, UniProt O43614)
Construct: expressed in transfected cells; host or cells: HEK293 cells (transient transfection, Genejuice); membranes
TEST: 3H-EMPA radioligand binding assay
EXPERIMENTAL_CONDITIONS: 3H-EMPA displacement, membranes of HEK293 cells transfected with human Orexin-2 receptor; KI by Cheng-Prussoff; read-out: OX2 pKi ave (converted)
MEASURED_ATTRIBUTE: Ki (nM)
Give bare numbers, in nM.

Solved cases below.
Record `CC(C)c1ccc(N2C(=O)N(Cc3c(F)cccc3Cl)c3ccccc3S2(=O)=O)cc1` . Reported Ki: 3.72

Field Ki (entry `COc1ccc(N2C(=O)N(Cc3c(F)cc(F)cc3F)c3ccccc3S2(=O)=O)nc1OC` ) reads 1.58

// `COc1ccc(N2C(=O)N(Cc3c(F)cc(F)cc3F)c3ncccc3S2(=O)=O)cc1OC` : Ki value = 1.2

Count: 4. Required value per item: Ki.
1. CSc1ccc(N2C(=O)N(Cc3c(F)cc(F)cc3F)c3ccccc3S2(=O)=O)cn1
2. Cc1cc(C)cc(N2C(=O)N(Cc3ccccc3F)c3ccccc3S2(=O)=O)c1
3. COc1ccc(N2C(=O)N(Cc3c(Cl)cncc3Cl)c3ccccc3S2(=O)=O)cc1OC
4. COc1c(C)cc(N2C(=O)N(Cc3c(F)cc(F)cc3F)c3ccccc3S2(=O)=O)cc1C

[17.4, 20.9, 3.02, 0.355]

Parameters: items (list). Returns: Ki for each item.
1. COc1cc(F)c(CN2C(=O)N(c3ccc(C)c(C)c3)S(=O)(=O)c3cccnc32)c(F)c1
2. O=C1N(Cc2c(F)cccc2F)c2ccccc2S(=O)(=O)N1c1cccc(SC(F)(F)F)c1
3. CS(=O)(=O)c1cccc(N2C(=O)N(Cc3c(F)cc(F)cc3F)c3ccccc3S2(=O)=O)c1
4. O=C1N(Cc2c(F)cc(F)cc2F)c2ccccc2S(=O)(=O)N1Cc1cc(=O)[nH]c2ccccc12

1. 0.776
2. 8.32
3. 26.9
4. 11.2

Lab note: each molecule below needs its Ki filled in.
1. COc1cc(F)c(CN2C(=O)N(c3ccc(C)c(OC)n3)S(=O)(=O)c3cccnc32)c(F)c1
2. Cn1cc(N2C(=O)N(Cc3c(F)cccc3Cl)c3ccccc3S2(=O)=O)ccc1=O
3. COc1cc(F)c(CN2C(=O)N(c3cnc(OC)c(C)c3)S(=O)(=O)c3ccccc32)c(F)c1
4. COc1ccc(N2C(=O)N(Cc3c(F)cc(F)cc3F)c3ccccc3S2(=O)=O)cc1OC
5. CSc1cccc(N2C(=O)N(Cc3cc(C)nn3C)c3ccccc3S2(=O)=O)c1
6. COc1ccc(N2C(=O)N(Cc3c(F)cccc3Cl)c3ccncc3S2(=O)=O)cc1OC
7. COc1ccc(N2C(=O)N(Cc3c(C)cccc3F)c3ccccc3S2(=O)=O)cc1OC

1: 1.35; 2: 302; 3: 1.78; 4: 1.95; 5: 295; 6: 38; 7: 0.389
